Source listed as patent US9951065B2.

# tested-system: IDO1 (Homo sapiens)
# Construct: HeLa cells were treated with a test compound in the presence of IFNγ, which induces IDO1 expression; host or cells: H1-HeLa cells, IDO1 induced with IFNγ
# Sequence (P14902 whole entry): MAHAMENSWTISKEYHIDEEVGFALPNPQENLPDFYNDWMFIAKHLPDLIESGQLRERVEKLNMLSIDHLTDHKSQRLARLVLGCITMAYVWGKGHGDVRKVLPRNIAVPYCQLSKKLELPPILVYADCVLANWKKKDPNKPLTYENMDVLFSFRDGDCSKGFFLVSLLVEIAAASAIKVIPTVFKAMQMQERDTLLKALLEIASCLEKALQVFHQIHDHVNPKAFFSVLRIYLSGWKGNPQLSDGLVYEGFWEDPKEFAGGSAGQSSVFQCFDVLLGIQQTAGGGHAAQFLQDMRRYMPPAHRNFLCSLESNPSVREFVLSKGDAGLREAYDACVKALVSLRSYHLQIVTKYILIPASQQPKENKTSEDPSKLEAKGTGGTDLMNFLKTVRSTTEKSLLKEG
# test-details: Cell-based (HeLa) assay for measurement of IDO1 inhibition (kynurenine levels in supernatant after IFNγ induction)
# measurement-parameters: HeLa cells, IFNγ-induced IDO1, kynurenine in supernatant after 48 hour incubation; geometric mean of a minimum of four determinations
pEC50: −log10 of the molar value.

{"columns": ["compound", "limit-qualifier", "pEC50"],
 "data": [
  ["O/N=C(\\Nc1ccc(F)c(Cl)c1)c1cc(F)c(F)c2nc(NC3CC(O)C3)[nH]c12 (stereo not drawn)", "<", 5.00],
  ["O/N=C(\\Nc1ccc(F)c(Cl)c1)c1ccnc2nc(NCC3CC3)[nH]c12", "=", 6.18],
  ["O/N=C(\\Nc1cccc2ccoc12)c1ccnc2nc[nH]c12", "=", 5.87],
  ["COC(=O)NCCc1nc2nccc(/C(=N/O)Nc3ccc(F)c(Cl)c3)c2[nH]1", "<", 5.00],
  ["CNc1nc2nccc(/C(=N/O)Nc3ccc(F)c(Cl)c3)c2[nH]1", "=", 6.34],
  ["O/N=C(\\Nc1ccc(F)c(C(F)(F)F)c1)c1ccnc2[nH]c(CCl)nc12", "=", 5.71]
]}
